Assay: Kinetic solubility assessment in the assay buffers
Assay type: physicochemical
Conditions: aqueous buffer, kinetic from dmso stock, 37° C.
Property measured: solubility at 10 min

I am curious: what solubility at 10 min value has been reported for [O-][n+]1cccc(C(Cl)=NOCC(O)CN2CCCCC2)c1 (stereo not shown) [Arimoclomol] ?
≥ 300 µM
